Test: NCI Yeast Anticancer Drug Screen. Data for the rad50 strain (AID 155);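 further: 0% = growth of vehicle-only cultures of the same strain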
Conditions: S. cerevisiae rad50 strain growth inhibition; at 5.0 µM (retest, dose inferred, filed as 0.5); active compounds read high
This is part of a sample that, as a whole, favours compounds with a hit. Of some 79,000 tested, about 15% had one in any assay. Activity calls are given as the source filed them. No stated cut-off is given here; in the data, active means growth inhibition above about 70%; inactive means the rest.
Known growth inhibition of a selection of molecules
Measured Attribute: growth inhibition

- Molecule: "CC(=O)OCc1ccc2c(c1)C(O)NC(=O)O2 (stereo not given)"
  Measured Attribute: "growth inhibition"
  Reported Measurement: "8% (inactive)"
- Molecule: "Cc1cc(Cl)ccc1N1C(=O)C(=O)C(c2nc3ccccc3o2)C(=O)C1=O"
  Measured Attribute: "growth inhibition"
  Reported Measurement: "31% (inactive)"
- Molecule: "O=C(Nc1ccc(Cl)cc1Cl)C1C(=O)OC2(CCCCC2)OC1=O"
  Measured Attribute: "growth inhibition"
  Reported Measurement: "24% (inactive)"
- Molecule: "CCOC(=O)c1cnn(-c2ccccc2)c1N"
  Measured Attribute: "growth inhibition"
  Reported Measurement: "62% (inactive)"
- Molecule: "CC/C(=C(\\CC)c1ccc(O)c(CN(CCO)CCO)c1)c1ccc(O)cc1"
  Measured Attribute: "growth inhibition"
  Reported Measurement: "-3% (inactive)"
- Molecule: "c1ccc2nc(C[n+]3cccc4ccccc43)ccc2c1"
  Measured Attribute: "growth inhibition"
  Reported Measurement: "86% (active)"
- Molecule: "Cc1cc(C(O)(c2cc(C)c(O)c(C(=O)O)c2)c2cc(C)c(O)c(C(=O)O)c2)cc(C(=O)O)c1O"
  Measured Attribute: "growth inhibition"
  Reported Measurement: "2% (inactive)"
- Molecule: "O=C1OC(C2OC(=O)C(=O)C2C(=O)c2ccc(Cl)cc2)C(C(=O)c2ccc(Cl)cc2)C1=O (stereo not given)"
  Measured Attribute: "growth inhibition"
  Reported Measurement: "-3% (inactive)"
- Molecule: "[Cl][Ge]([c]1ccccc1)[c]1ccccc1.[Cl][Ge]([c]1ccccc1)[c]1ccccc1"
  Measured Attribute: "growth inhibition"
  Reported Measurement: "22% (inactive)"
- Molecule: "COc1cccc(/C=N/NC(=O)c2c(-c3ccccc3)noc2C)c1O"
  Measured Attribute: "growth inhibition"
  Reported Measurement: "47% (inactive)"

----------
Test: NCI Yeast Anticancer Drug Screen. Data for the sgs1 mgt1 strain (AID 161);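 further: 0% = growth of cultures given vehicle only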
Details: S. cerevisiae sgs1 mgt1 strain, at 50.0 µM (retest, dose inferred, filed as 5.0), active compounds read high
This is part of a sample that, as a whole, favours compounds with a hit. Of some 79,000 tested, about 15% had one in any assay.
# maps each entry to its growth inhibition
Measured Attribute: growth inhibition (%)

- Compound: "Cc1ccccc1Sc1ccccc1[N+](=O)[O-]"
  Unit Of Measurement: "%"
  Reported Measurement: 27
- Compound: "O=C1C2Nc3ccccc3SC2C(=O)N1c1ccccc1C(F)(F)F (stereo not given)"
  Unit Of Measurement: "%"
  Reported Measurement: 24
- Compound: "CCOC(=O)C1=C(C)Oc2cc3c(cc2C1c1cc(OC)c(OC)c(OC)c1)OCO3 (stereo not given)"
  Unit Of Measurement: "%"
  Reported Measurement: 37
- Compound: "NNc1cc(Cl)ccc1Cl"
  Unit Of Measurement: "%"
  Reported Measurement: 98
- Compound: "CC(C)c1ccc(CN(CCO)Cc2ccc(C(C)C)cc2)cc1"
  Unit Of Measurement: "%"
  Reported Measurement: 95
- Compound: "CN(C)CC(O)c1cc(-c2ccc(Cl)cc2)nc2c(Cl)cc(Cl)cc12 (stereo not given)"
  Unit Of Measurement: "%"
  Reported Measurement: 99
- Compound: "Cc1cc(Cl)ccc1N1C(=O)C(=O)C(c2nc3ccccc3o2)C(=O)C1=O"
  Unit Of Measurement: "%"
  Reported Measurement: 98
- Compound: "CC(C)N(C(=O)CC1(O)CCCCC1)C(C)C"
  Unit Of Measurement: "%"
  Reported Measurement: -11
- Compound: "Cc1cccc(C)c1N=Nc1c(C)nc(N)nc1-c1ccccc1"
  Unit Of Measurement: "%"
  Reported Measurement: 96
- Compound: "c1ccc2c(c1)Cc1nc3ccccc3nc1-2"
  Unit Of Measurement: "%"
  Reported Measurement: 86
- Compound: "CC(C)=CCc1ccc(O)cc1"
  Unit Of Measurement: "%"
  Reported Measurement: 98
- Compound: "O=C1C(Cl)=C(Cl)C(=O)C2=C1CC(Cl)C(Cl)C2 (stereo not given)"
  Unit Of Measurement: "%"
  Reported Measurement: 97
- Compound: "CC1N(O)C(c2ccccc2)C(c2ccccc2)=[N+]1[O-] (stereo not given)"
  Unit Of Measurement: "%"
  Reported Measurement: 26
- Compound: "O=C(O)c1ccc(NCc2c(O)ccc3ccccc23)cc1"
  Unit Of Measurement: "%"
  Reported Measurement: 15
- Compound: "Cc1cc(Cl)c(O)c(-c2cc(-c3ccccc3O)c(C#N)c(N)n2)c1"
  Unit Of Measurement: "%"
  Reported Measurement: 80
- Compound: "CCOc1ccc2nc(C)cc(C)c2c1"
  Unit Of Measurement: "%"
  Reported Measurement: 60
- Compound: "O=C(O)c1ccc(OCc2ccccc2)c(Cl)c1"
  Unit Of Measurement: "%"
  Reported Measurement: 38
- Compound: "O/N=C(/Cc1nc2cc(Cl)c(Cl)cc2nc1C/C(=N/O)c1ccncc1)c1ccncc1"
  Unit Of Measurement: "%"
  Reported Measurement: 55
- Compound: "O=C(Nc1ccccc1)c1ccccc1O"
  Unit Of Measurement: "%"
  Reported Measurement: 87
- Compound: "Cc1cc(Br)cc(C(=O)Cl)c1O"
  Unit Of Measurement: "%"
  Reported Measurement: -54
- Compound: "COC(=O)/C(C#N)=C1\\NC(=O)CC(c2ccccc2)C1C#N (stereo not given)"
  Unit Of Measurement: "%"
  Reported Measurement: 20
- Compound: "CCOC(=O)C(=Cc1ccc(C(=O)OC)cc1)C(=O)OCC"
  Unit Of Measurement: "%"
  Reported Measurement: 63
- Compound: "CCN(CC)C(=S)n1c(=S)nc(N(CC)CC)sc1=S"
  Unit Of Measurement: "%"
  Reported Measurement: 99
- Compound: "CC(=O)[O-].[Mn+3].[O-]c1ccc(Cl)cc1C=NCCN=Cc1cc(Cl)ccc1[O-]"
  Unit Of Measurement: "%"
  Reported Measurement: 87
- Compound: "CN(C)NC(=S)C(F)(F)F"
  Unit Of Measurement: "%"
  Reported Measurement: 84

----------
Test: NCI Yeast Anticancer Drug Screen. Data for the rad50 strain (AID 155);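 further: 0% = growth of vehicle-only cultures of the same strain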
Details: S. cerevisiae rad50 strain growth inhibition; at 50.0 µM (retest, dose inferred, filed as 5.0); active compounds read high
The panel holds about 79,000 compounds, 15% with a hit somewhere; the sample as a whole holds those more often.
Decide using growth inhibition: a value greater than or equal to 80% is Y, a smaller one is N.

- Compound: "Cc1ccc(SC2=C(N(C)C)C(=O)c3ccccc3C2=O)cc1"
  Qualitative Label: "Y"
- Compound: "N/C(CC(=O)NOC(=O)c1ccccc1)=N/OC(=O)c1ccccc1"
  Qualitative Label: "Y"
- Compound: "CCOC(=O)C(Br)c1nc2ccccc2[nH]c1=O (centres undefined)"
  Qualitative Label: "N"
- Compound: "Fc1ccc(CSC(=S)Nc2cccc(C(F)(F)F)c2)cc1"
  Qualitative Label: "Y"
- Compound: "CCCCCCCCCCCCCCCCN1CCSCC1"
  Qualitative Label: "Y"
- Compound: "O=C(NC(=Nc1ccccc1)SCCSC(=Nc1ccccc1)NC(=O)c1ccccc1)c1ccccc1"
  Qualitative Label: "N"
- Compound: "O=C(Nc1ccc(Cl)cc1Cl)C1C(=O)OC2(CCCCC2)OC1=O"
  Qualitative Label: "Y"
- Compound: "CCCCCCCCCCCCS"
  Qualitative Label: "N"
- Compound: "CCCCCCCCCCCCCCCC1C(N)C(=O)N(C)N1C (centres undefined)"
  Qualitative Label: "Y"
- Compound: "O=C1C(=O)c2cc(Cl)ccc2-c2ccc(Cl)cc21"
  Qualitative Label: "Y"
- Compound: "CC(=O)OCC1CC2OC2CC1C (centres undefined)"
  Qualitative Label: "N"
- Compound: "O=c1c2[nH]c3cccc(Cl)c3c2cnn1-c1ccc(F)cc1"
  Qualitative Label: "N"
- Compound: "Cc1ccc(NC(=O)Oc2ccc(OC(=O)Cc3ccccc3)cc2)cc1NC(=O)Oc1ccc(OC(=O)Cc2ccccc2)cc1"
  Qualitative Label: "Y"
- Compound: "c1c[n+](CCC2CCCCC2)ccn1"
  Qualitative Label: "N"
- Compound: "O=C(SC(O)c1ccc(Cl)cc1)c1ccccc1 (centres undefined)"
  Qualitative Label: "N"
- Compound: "Cc1ccc(S(=O)(=O)N/N=C2\\CC(C)OC3=C2CCCCCC3)cc1 (centres undefined)"
  Qualitative Label: "Y"
- Compound: "NC(=O)N/N=C(/Cc1nc2ccccc2nc1C/C(=N/NC(N)=O)c1cccc2ccccc12)c1cccc2ccccc12"
  Qualitative Label: "N"
- Compound: "Fc1ccc(CN2COc3c(ccc4cccnc34)C2)cc1"
  Qualitative Label: "N"
- Compound: "CCCCN(CCCC)CC(O)Cc1cc2ccccc2c2ccccc12 (centres undefined)"
  Qualitative Label: "N"
- Compound: "COC1OC2=CCC3C(=O)NC(=O)C3C2[C@H](OCc2ccccc2)C1OCc1ccccc1 (some centres undefined)"
  Qualitative Label: "Y"
- Compound: "Oc1cc(-[n+]2ccc3ccccc3c2)c(O)c2ccccc12"
  Qualitative Label: "N"
- Compound: "Cc1ccc(C(=O)CCCN2CCOCC2)c(C)c1"
  Qualitative Label: "N"
- Compound: "O=C(CNCc1ccccc1)c1ccc(Cl)cc1"
  Qualitative Label: "N"
- Compound: "CC(C)Nc1nc(NC(C)C)c2cnn(-c3ccccc3)c2n1"
  Qualitative Label: "N"
- Compound: "ClC1(c2ccccc2)c2ccccc2-c2ccccc21"
  Qualitative Label: "Y"
- Compound: "Cc1ccc(/C=C2\\CCCC(CN(C)C)C2=O)cc1 (centres undefined)"
  Qualitative Label: "Y"
- Compound: "COc1ccc(C2c3cc4c(cc3OC(O)C2C)OCO4)cc1 (centres undefined)"
  Qualitative Label: "N"
- Compound: "CC(=O)Oc1ccc(C23CC4CC(CC(C4)C2)C3)cc1"
  Qualitative Label: "Y"
- Compound: "CCCCCCCCCCCOc1cccc(N2C(N)=NC(N)=NC2(C)C)c1"
  Qualitative Label: "Y"
- Compound: "CCOC(=O)c1c(C)c2c(n1C)CCc1sc(N)nc1-2"
  Qualitative Label: "N"
- Compound: "COC(=O)/N=C/CCC(O)NC(=O)OC (centres undefined)"
  Qualitative Label: "N"
- Compound: "COc1ccc2c(c1)C(O)=C(CC=C(C)C)C(=O)C2=O"
  Qualitative Label: "N"
- Compound: "C(=C/c1ccnc2ccccc12)/c1cccs1"
  Qualitative Label: "Y"
- Compound: "Cc1cc(NS(=O)(=O)c2ccc(NCc3c4ccccc4nc4cc(Cl)ccc34)cc2)no1"
  Qualitative Label: "Y"
- Compound: "CSC(=S)N/N=C(C)/C=C/c1ccccc1"
  Qualitative Label: "Y"
- Compound: "COc1ccc(/C=N/NS(=O)(=O)c2ccc(C)cc2)cc1"
  Qualitative Label: "Y"
- Compound: "c1ccc(SSc2ccccn2)nc1"
  Qualitative Label: "Y"
- Compound: "Cc1ccc(-c2ccccc2)n1-c1cc(Cl)ccc1O"
  Qualitative Label: "Y"
- Compound: "CCC(CO)Nc1nc2cc(Br)ccc2c2ccc(Br)cc12 (centres undefined)"
  Qualitative Label: "Y"
- Compound: "CC(=O)OC(C)(C)N=Nc1ccc(Br)cc1"
  Qualitative Label: "Y"
- Compound: "O=C(NCCc1c(-c2ccccc2)[nH]c2ccccc12)C(F)(F)C(F)(F)F"
  Qualitative Label: "N"
- Compound: "[N-]=[N+]=CC(=O)c1ccc(C(=O)C=[N+]=[N-])cc1"
  Qualitative Label: "Y"
- Compound: "NC(N)=NC(N)=Nc1ccc(-c2ccccc2)cc1"
  Qualitative Label: "Y"
- Compound: "CCC1CCC(CC)C1O (centres undefined)"
  Qualitative Label: "N"
- Compound: "COc1cc(CNc2nc3ccccc3nc2-c2cccs2)cc(OC)c1OC"
  Qualitative Label: "N"
- Compound: "O=C(Nc1ccccc1)O/N=C1/CCCC/C1=C\\c1ccccc1"
  Qualitative Label: "N"
- Compound: "Cc1ccc(COCO)c(O)c1"
  Qualitative Label: "N"
- Compound: "c1nc2nc(N3CCOCC3)nc(N3CCCCC3)c2[nH]1"
  Qualitative Label: "N"
- Compound: "CCCCP(CCCC)(CCCC)=C(C(=O)OC)C(C(=O)OC)=C1SC(C(=O)OC)=C(C(=O)OC)S1"
  Qualitative Label: "N"
